# assay target: human GPR40 (Homo sapiens (Human))
# assay name: Inositol Phosphate Turnover (IP1) Assay
# applied conditions: HEK cells stably expressing human GPR40; 60 min incubation; CisBio IP-One kit
assay metric: EC50 (nM)
The response must be a number in nM with no trailing unit.

Worked cases, EC50 given:
1) C[C@H](C(=O)O)C(c1ccc2c(c1)N(C)C(C1CCN(Cc3cc(C(F)(F)F)ccc3C(F)(F)F)CC1)CO2)C1CC1 (single isomer, unassigned)	4700
2) C[C@H](C(=O)O)[C@H](c1ccc2c(c1)N(C)C(C1CCN(Cc3cc(C(F)(F)F)ccc3C(F)(F)F)CC1)CC2)C1CC1 (single isomer, unassigned) [Example 9]	289
3) COc1ccc(F)c(-c2ccc(C3CCc4ccc([C@H](C5CC5)[C@H](C)C(=O)O)cc4N3)cc2)c1 (single isomer, unassigned) [Example 11]	0.79

Ask: Can you share its EC50? I mean this compound: COc1ccc(F)c(-c2ccc(C3CCc4ccc([C@H](C5CC5)[C@H](C)C(=O)O)cc4N3C)cc2)c1 (single isomer, unassigned) [Example 14]
Reply: 1

Ask: Can you share its EC50? I mean this compound: C[C@H](C(=O)O)[C@H](c1ccc2c(c1)N(C)C(C1CCN(Cc3cc(C(F)(F)F)ccc3C(F)(F)F)CC1)CC2)C1CC1 (single isomer, unassigned) [Example 8]
Reply: 439

---

# assay target: human GPR40 (Homo sapiens (Human))
# assay name: Inositol Phosphate Turnover (IP1) Assay
# applied conditions: HEK cells stably expressing human GPR40; 60 min incubation; CisBio IP-One kit
# Experimental: Human GPR40 stable cell-lines were generated in HEK cells. The expression plasmids were transfected using lipofectamine (Life Technologies) following manufacturer's instructions. […] The assay was performed in 384-well format. […] The plates were then read in a Perkin Elmer EnVision or equivalent reader able to measure FRET. […] Data was normalized to % activity using a reference compound and EC50s determined using a standard 4-paramter fit.
assay metric: EC50 (nM)
The response must be a number in nM with no trailing unit.

Worked cases, EC50 given:
1) COc1ccc(F)c(-c2ccc(C3COc4ccc([C@H](C5CC5)[C@H](C)C(=O)O)cc4N3C)cc2)c1 (single isomer, unassigned) [Example 20]	0.8
2) COc1ccc(F)c(-c2ccc(C3COc4ccc([C@H](C5CC5)[C@H](C)C(=O)O)cc4N3C)cc2)c1 (single isomer, unassigned) [Example 21]	12

Ask: Can you share its EC50? I mean this compound: C[C@H](C(=O)O)[C@H](c1ccc2c(c1)N(C)C(C1CCN(Cc3cc(C(F)(F)F)ccc3C(F)(F)F)CC1)CO2)C1CC1 (single isomer, unassigned)
Reply: 2100

---

# assay target: human GPR40 (Homo sapiens (Human), UniProt O14842)
# Sequence (O14842 whole entry): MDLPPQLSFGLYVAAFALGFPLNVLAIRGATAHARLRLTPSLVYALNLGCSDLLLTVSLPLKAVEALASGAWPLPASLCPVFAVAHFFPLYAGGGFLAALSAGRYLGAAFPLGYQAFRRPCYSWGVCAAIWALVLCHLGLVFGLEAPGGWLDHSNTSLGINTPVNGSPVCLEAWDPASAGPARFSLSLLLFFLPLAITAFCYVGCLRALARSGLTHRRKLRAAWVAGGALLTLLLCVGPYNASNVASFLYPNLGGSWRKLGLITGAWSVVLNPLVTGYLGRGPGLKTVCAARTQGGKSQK
# assay name: Inositol Phosphate Turnover (IP1) Assay
# applied conditions: HEK cells stably expressing human GPR40; 60 min incubation; CisBio IP-One kit
Assign labels as follows, please: y for EC50 below 40 nM; n for EC50 equal to or exceeding 40 nM.

Please review the entries below; each comes with its answer.
1) C[C@H](C(=O)O)[C@H](c1ccc2c(c1)NC(C1CCN(Cc3cc(C(F)(F)F)ccc3C(F)(F)F)CC1)CO2)C1CC1 (single isomer, unassigned) [Example 2]	n
2) COc1ccc(F)c(-c2ccc(C3CCc4ccc([C@H](C5CC5)[C@H](C)C(=O)O)cc4N3C)cc2)c1 (single isomer, unassigned) [Example 15]	y
3) C[C@H](C(=O)O)[C@H](c1ccc2c(c1)NC(C1CCN(Cc3cc(C(F)(F)F)ccc3C(F)(F)F)CC1)CO2)C1CC1 (single isomer, unassigned) [Example 3]	n
4) COc1ccc(F)c(-c2ccc(C3COc4ccc([C@H](C5CC5)[C@H](C)C(=O)O)cc4N3)cc2)c1 (single isomer, unassigned) [Example 18]	y

Ask: Would you kindly verify if EC50 of COc1ccc(F)c(-c2ccc(C3CCc4ccc([C@H](C5CC5)[C@H](C)C(=O)O)cc4N3)cc2)c1 (single isomer, unassigned) [Example 12] is strictly less than 40 nM?
Reply: y

Ask: Would you kindly verify if EC50 of C[C@H](C(=O)O)[C@H](c1ccc2c(c1)NC(C1CCN(Cc3cc(C(F)(F)F)ccc3C(F)(F)F)CC1)CC2)C1CC1 (single isomer, unassigned) [Example 7] is strictly less than 40 nM?
Reply: n
